These measurements were taken from patent US9840510B1.

PROCEDURE_SUMMARY: Compound solubility in water
Assay type: physicochemical
QUANTITY_NAME: solubility (µg/mL)

- MOLECULE: "Cc1cc(N2CCCCC2)n2ncc(C(=O)NC(C)(C)C3CC3)c2n1 [III-22]"
  UNIT_TEXT: "µg/mL"
  OBS_VALUE: 0.5

A: Cc1cc(-n2ccc(F)n2)nc2c(C(=O)NC(C3CC3)C(F)(F)F)cnn12 (stereo not drawn) [III-172]
B: COc1ccc(-c2cc(C)n3ncc(C(=O)NC(C4CC4)C(F)(F)F)c3n2)cn1 (stereo not drawn) [III-268]
-- ask Of A and B , whose reported solubility is numerically smaller? Answer by stating the label of the chosen item.
-- reply A
(A: 0.5 µg/mL, B: 1.2 µg/mL)

* * *

PROCEDURE_SUMMARY: Compound solubility in water
Type: physicochemical
QUANTITY_NAME: solubility (µg/mL)

Some entries whose results are on file:
- COMPOUND: "COc1ccc(F)c(-c2cc(C)n3ncc(C(=O)N[C@H](C)C(F)(F)F)c3n2)c1 [III-97]"
  OBS_VALUE: 0.2
- COMPOUND: "Cc1ncc(-c2cc(C)n3ncc(C(=O)NC(C4CC4)C(F)(F)F)c3n2)o1 (centres unmarked) [III-246]"
  OBS_VALUE: 3.1
- COMPOUND: "Cc1cc(-c2ccc(F)c(C#N)c2)nc2c(C(=O)NC(C3CC3)C(F)(F)F)cnn12 (centres unmarked) [III-158]"
  OBS_VALUE: 0.3

I: Cc1cc(-c2sccc2C#N)nc2c(C(=O)N[C@@H](C)C3CC3)cnn12 [III-301]
II: Cc1cc(-c2cccc(C(=O)N(C)C)c2)nc2c(C(=O)NC(C3CC3)C(F)(F)F)cnn12 (centres unmarked) [III-413]
-- ask I'd appreciate it if you could identify which of I and II has the greater solubility. Let me know the label of the one you choose.
-- reply II
(II: 6 µg/mL, I: 1.1 µg/mL)

* * *

PROCEDURE_SUMMARY: Compound solubility in water
Assay type: physicochemical
QUANTITY_NAME: solubility (µg/mL)

Answered examples (3):
- COMPOUND: "Cc1cc(-c2cccc(Cl)c2)nc2c(C(=O)NC(C)(C)C(F)(F)F)cnn12"
  solubility (µg/mL): 0.8
- COMPOUND: "Cc1nc2cc(-c3cc(C)n4ncc(C(=O)N[C@@H](C)C5CC5)c4n3)ccc2o1"
  solubility (µg/mL): 1.9
- COMPOUND: "Cc1cc(-c2ccccc2C#N)nc2c(C(=O)N[C@H](C)C(F)(F)F)cnn12"
  solubility (µg/mL): 0.7

a: Cc1coc(-c2cc(C)n3ncc(C(=O)NC(C4CC4)C(F)(F)F)c3n2)n1 (centres unmarked)
b: Cc1cc(-c2ncccc2Cl)nc2c(C(=O)NC(C3CC3)C(F)(F)F)cnn12 (centres unmarked)
-- ask Record comparison, field solubility: mark the lower of a and b . Response format: the label of the selected entry.
-- reply a

* * *

PROCEDURE_SUMMARY: Compound solubility in water
Type: physicochemical
QUANTITY_NAME: solubility (µg/mL)

Solved cases below.
- COMPOUND: "COc1ccc(F)c(-c2cc(C)n3ncc(C(=O)NC(C)C(F)(F)F)c3n2)c1 (stereo not shown)"
  solubility / µg/mL: 0.9
- COMPOUND: "Cc1cc(-c2cncc(Cl)c2)nc2c(C(=O)NC(C)C(F)(F)F)cnn12 (stereo not shown)"
  solubility / µg/mL: 1
- COMPOUND: "Cc1cc(-c2sccc2C#N)nc2c(C(=O)NC(C)C(F)(F)F)cnn12 (stereo not shown)"
  solubility / µg/mL: 1.4
- COMPOUND: "COc1ccc(F)c(-c2cc(C)n3ncc(C(=O)N[C@@H](C)C(F)(F)F)c3n2)c1"
  solubility / µg/mL: 0.3
- COMPOUND: "CCCO[C@H]1CC[C@H](NC(=O)c2cnn3c(C)cc(-c4cccnc4)nc23)CC1"
  solubility / µg/mL: 20

A: CCCCO[C@H]1CC[C@H](NC(=O)c2cnn3c(C)cc(-c4cncc(Cl)c4)nc23)CC1
B: COCOc1cccc(-c2cc(C)n3ncc(C(=O)N[C@@H](C4CC4)C(F)(F)F)c3n2)n1
C: Cc1cc(Cl)n2ncc(C(=O)NC(C)(C)C3CC3)c2n1
-- ask Put the items in sequence by solubility, from largest down. // ordering of labels required in reply
-- reply C, A, B
(C: 10.7 µg/mL, A: 0.3 µg/mL, B: 0.1 µg/mL)

1: Cc1cc(-c2ccc(F)cc2)nc2c(C(=O)N[C@@H](C)C3CC3)c(Cl)nn12
2: COCc1cc(-c2ccc(F)cc2)nc2c(C(=O)NC(C)(C)C3CC3)cnn12
-- ask For the pair 1 and 2 , which member has the lower solubility number? The response must carry the label of the picked entry.
-- reply 1
(1: 0.1 µg/mL, 2: 0.3 µg/mL)

* * *

PROCEDURE_SUMMARY: Compound solubility in water
Format: physicochemical
QUANTITY_NAME: solubility (µg/mL)

- COMPOUND: "Cc1cc(-c2sccc2C#N)nc2c(C(=O)N[C@H](C)C3CC3)cnn12"
  UNIT_TEXT: "µg/mL"
  OBS_VALUE: 0.5

I: Cc1cc(-c2ccns2)nc2c(C(=O)NC(C)C(F)(F)F)cnn12 (stereo not drawn)
II: Cc1cc(-c2nccs2)nc2c(C(=O)NC(C3CC3)C(F)(F)F)cnn12 (stereo not drawn)
-- ask Please let me know which one, I or II , has a lower measured solubility value. Mark your selection by writing its label.
-- reply I

* * *

PROCEDURE_SUMMARY: Compound solubility in water
Format: physicochemical
QUANTITY_NAME: solubility (µg/mL)

- COMPOUND: "C#CC(NC(=O)c1cnn2c(C)cc(-c3cccc(OC)c3)nc12)C(F)(F)F (stereo not drawn)"
  solubility (µg/mL): 2
- COMPOUND: "COCCOc1ccc(-c2cc(C)n3ncc(C(=O)NC(C)C(F)(F)F)c3n2)cc1F (stereo not drawn)"
  solubility (µg/mL): 1.5
- COMPOUND: "Cc1cc(-c2cnccc2Cl)nc2c(C(=O)NC(C3CC3)C(F)(F)F)cnn12 (stereo not drawn)"
  solubility (µg/mL): 2.1
